// reported drug sensitivity score for each item listed
# Test system: KURAMOCHI
# Protocol text: drug sensitivity score (DSS2) on cancer cell count; higher = more sensitive; extreme values may be limits of the assay
# Run conditions: co-cultured fibroblast: BJHTERT; 72 h
All answers are understood in DSS, so give the number only.

Cc1nc(NC(=O)N2CCC[C@H]2C(N)=O)sc1-c1ccnc(C(C)(C)C(F)(F)F)c1 | 0

Query string: Any idea what its drug sensitivity score is? The compound is Nc1cccc2c1C(=O)N(C1CCC(=O)NC1=O)C2=O (centres undefined) [Pomalidomide]
Result string: 0

Query string: For COC(=O)C[C@](O)(CCCC(C)(C)O)C(=O)O[C@@H]1C(OC)=C[C@]23CCCN2CCc2cc4c(cc2[C@H]13)OCO4 then?
Result string: 23.8

Query string: Subsequent entry: CC[C@H](C)C(=O)O[C@H]1C[C@H](O)C=C2C=C[C@H](C)[C@H](CC[C@@H](O)C[C@@H](O)CC(=O)O)[C@H]21
Result string: 0

====

# Tested on: KURAMOCHI
# Protocol text: drug sensitivity score (DSS2) on cancer cell count; higher = more sensitive; extreme values may be limits of the assay
# Run conditions: co-cultured fibroblast: WI38; 72 h
Recorded metric: drug sensitivity score (DSS)
# number only, unit DSS dropped from output

Reference set, count: 8
COc1cc(Nc2ncc(F)c(Nc3ccc4c(n3)N(COP(=O)(O)O)C(=O)C(C)(C)O4)n2)cc(OC)c1OC [Fostamatinib] | 2
COc1cc2ncnc(Nc3ccc(F)c(Cl)c3)c2cc1NC(=O)/C=C/CN1CCCCC1 [Dacomitinib] | 3.7
C[C@@H](Oc1cc(-n2cnc3ccc(CN4CCN(C)CC4)cc32)sc1C(N)=O)c1ccccc1C(F)(F)F | 27.7
CC[C@@]1(O)C(=O)OCc2c1cc1n(c2=O)Cc2cc3c(CN(C)C)c(O)ccc3nc2-1 [Topotecan] | 25.7
O=C(Nc1ccncc1)C(=O)c1cn(Cc2ccc(Cl)cc2)c2ccccc12 [Indibulin] | 17.2
CC(C)(O)CNc1nc(Nc2ccnc(C(F)(F)F)c2)nc(-c2cccc(C(F)(F)F)n2)n1 [Enasidenib] | 0
N#CC[C@H](C1CCCC1)n1cc(-c2ncnc3[nH]ccc23)cn1 [Ruxolitinib] | 0
CN(c1ncccc1CNc1nc(Nc2ccc3c(c2)CC(=O)N3)ncc1C(F)(F)F)S(C)(=O)=O | 10.7

Query string: Name the reported drug sensitivity score value associated with the molecule CCN(CC)Cc1ccc2cc(COC(=O)Nc3ccc(C(=O)NO)cc3)ccc2c1 [Givinostat]
Result string: 7.4

====

# Tested on: OVCAR8
# Protocol text: drug sensitivity score (DSS2) on cancer cell count; higher = more sensitive; extreme values may be limits of the assay
# Run conditions: co-cultured fibroblast: WI38; 72 h
Cut-off 2 DSS on drug sensitivity score, inclusive. At or above means 1 (yes); below means 0 (no).

CN(C)C(=N)NC(=N)N [Metformin] | 0 (no)
Cn1cc(-c2ccc(F)c(C(F)(F)F)c2)nc1C1CCN(c2ncnc3[nH]ncc23)CC1 | 0 (no)
C=CCc1cccc(/C=N/NC(=O)CN2CCN(Cc3ccccc3)CC2)c1O [PAC-1] | 0 (no)
C=CC(=O)N1CCC(Oc2cc3c(Nc4ccc(Cl)c(Cl)c4F)ncnc3cc2OC)CC1 [Poziotinib] | 0 (no)
C=CC(=O)Nc1cc2c(Nc3ccc(F)c(Cl)c3)ncnc2cc1OCCCN1CCOCC1 [Canertinib] | 1 (yes)

Now turn to the next compound.
Query string: Is drug sensitivity score at least 2 DSS? Consider COc1cccc2c1C(=O)c1c(O)c3c(c(O)c1C2=O)C[C@@](O)(/C(CO)=N/NC(=O)CCCCCN1C(=O)C=CC1=O)C[C@@H]3O[C@H]1C[C@H](N)[C@H](O)[C@H](C)O1 [Aldoxorubicin]
Result string: 1 (yes)

====

Known drug sensitivity score of a selection of compounds
# Test system: OVCAR8
# Protocol text: drug sensitivity score (DSS2) on cancer cell count; higher = more sensitive; extreme values may be limits of the assay
# Run conditions: co-cultured fibroblast: WI38; 72 h
Numbers only here, please. The scale is DSS.

Worked cases, drug sensitivity score given:
CC(=O)c1c(C)c2cnc(Nc3ccc(N4CCNCC4)cn3)nc2n(C2CCCC2)c1=O | 0.3
Cc1ccc(C(=O)Nc2cccc(C(F)(F)F)c2)cc1Nc1nc(-c2cccnc2)nc2c1cnn2C | 6.8
Nc1ncn([C@@H]2O[C@H](CO)[C@@H](O)[C@H]2O)c(=O)n1 | 1.5

Query string: GET /values?readout=drug sensitivity score&system=OVCAR8&item= O=C(NCc1ccncc1)C12CC3CC(C1)CC(c1ccc(Cl)cc1)(C3)C2
Result string: 3.6

Query string: Now the same for CCNC(=O)C[C@@H]1N=C(c2ccc(Cl)cc2)c2cc(OC)ccc2-n2c(C)nnc21
Result string: 5.8

Query string: Subsequent entry: CC[C@H](CO)Nc1nc(NCc2ccccc2)c2ncn(C(C)C)c2n1
Result string: 6.1

Query string: Cool, now Cc1ccc(NC(=O)c2ccc(CN3CC[C@H](N(C)C)C3)c(C(F)(F)F)c2)cc1Nc1nccc(-c2cncnc2)n1
Result string: 0

Query string: Also CO[C@H]1C(=O)[C@]2(C)[C@@H](OC)C[C@H]3OC[C@@]3(OC(C)=O)[C@H]2[C@H](OC(=O)c2ccccc2)[C@]2(O)C[C@H](OC(=O)[C@H](O)[C@@H](NC(=O)OC(C)(C)C)c3ccccc3)C(C)=C1C2(C)C ?
Result string: 36

====

# System: OVCAR8
# Protocol text: drug sensitivity score (DSS2) on cancer cell count; higher = more sensitive; extreme values may be limits of the assay
# Run conditions: co-cultured fibroblast: BJHTERT; 72 h
Recorded metric: drug sensitivity score

These solved cases illustrate the format of a correct answer.
O=c1[nH]c(C2CCCN2)nc2c1oc1ccc(Cl)cc12 (configuration not stated) | 4.4 DSS
O=C(Nc1nc2cccc(-c3ccc(CN4CCS(=O)(=O)CC4)cc3)n2n1)C1CC1 | 2.9 DSS
C=CC(=O)N1CC/C(=C\c2ccc(F)c([N+](=O)[O-])c2)C(=O)/C(=C/c2ccc(F)c([N+](=O)[O-])c2)C1 | 24.8 DSS

Query string: Which drug sensitivity score value is on record for CN(C)CCCOc1ccc(-c2ccc3ncc4c(c3c2)n(C2CCOCC2)c(=O)n4C)cn1 ?
Result string: 6.4 DSS

Query string: // next record CC(=O)Nc1ccc(C(=O)Nc2ccccc2N)cc1
Result string: 0 DSS

Query string: Follow-up item: CCCCOc1nc(N)c2c(n1)N(Cc1cccc(CN3CCCC3)c1)CC(=O)N2
Result string: 0.4 DSS

Query string: Repeat with CC(O)(CS(=O)(=O)c1ccc(F)cc1)C(=O)Nc1ccc(C#N)c(C(F)(F)F)c1 (configuration not stated) [Bicalutamide]
Result string: 0.1 DSS

====

# Test system: KURAMOCHI
# Protocol text: drug sensitivity score (DSS2) on cancer cell count; higher = more sensitive; extreme values may be limits of the assay
# Run conditions: co-cultured fibroblast: WI38; 72 h
Recorded metric: drug sensitivity score (DSS)
Provide the reading as a plain figure in DSS.

O=C(CCNC(=O)c1ccc(OC(F)(F)F)cc1)N[C@@H]1CCCc2ccccc21 | 2.9

Query string: Recorded drug sensitivity score for CN1CCC(COc2cnc(-c3cccc(Cn4nc(-c5cccc(C#N)c5)ccc4=O)c3)nc2)CC1 , please?
Result string: 0

Query string: Would you kindly repeat that for CC(C)n1cnc2c(NCCc3ccc(O)cc3)nc(-c3csc4ccccc34)nc21 ?
Result string: 2.8

====

# Test system: OVCAR8
# Protocol text: drug sensitivity score (DSS2) on cancer cell count; higher = more sensitive; extreme values may be limits of the assay
# Run conditions: co-cultured fibroblast: WI38; 72 h
Recorded metric: drug sensitivity score

Some solved cases for reference:
CC1=C2C[C@H]3[C@@H](CC[C@@H]4C[C@H](NS(C)(=O)=O)CC[C@@]43C)[C@@H]2CC[C@@]2(C1)O[C@@H]1C[C@H](C)CN[C@H]1[C@H]2C [Saridegib] | 0 DSS
CNC(=O)c1cc(COc2nnc(Nc3ccc(Cl)cc3)c3ccoc23)ccn1 [Telatinib] | 0 DSS

Query string: Item CO[C@@H](C(=O)N1Cc2[nH]nc(NC(=O)c3ccc(N4CCN(C)CC4)cc3)c2C1)c1ccccc1 [Danusertib] has what recorded drug sensitivity score?
Result string: 19.2 DSS

====

Entries and their drug sensitivity score
# Tested on: OVCAR8
# Protocol text: drug sensitivity score (DSS2) on cancer cell count; higher = more sensitive; extreme values may be limits of the assay
# Run conditions: co-cultured fibroblast: WI38; 72 h

CO[C@H]1C[C@@H]2CC[C@@H](C)[C@@](O)(O2)C(=O)C(=O)N2CCCC[C@H]2C(=O)O[C@H]([C@H](C)C[C@@H]2CC[C@@H](OP(C)(C)=O)[C@H](OC)C2)CC(=O)[C@H](C)/C=C(\C)[C@@H](O)[C@@H](OC)C(=O)[C@H](C)C[C@H](C)/C=C/C=C/C=C/1C [Ridaforolimus] | 0 DSS
Nc1ncn([C@H]2C[C@H](O)[C@@H](CO)O2)c(=O)n1 [Decitabine] | 11.4 DSS
Cc1ccc(NS(=O)(=O)c2cccc(C#N)c2)c2[nH]cc(C#N)c12 [E7820] | 0 DSS

In the following, a different compound is considered.
Query string: Reported drug sensitivity score, compound Cc1c(F)cc(C(=O)NC2CC2)cc1-c1ccc(C(=O)NCC(C)(C)C)cn1 [Losmapimod] : ____
Result string: 0 DSS
